# EXPERIMENTAL_TARGET: plasmin (pig) (Sus scrofa, UniProt P06867)
# Sequence (P06867 97-809): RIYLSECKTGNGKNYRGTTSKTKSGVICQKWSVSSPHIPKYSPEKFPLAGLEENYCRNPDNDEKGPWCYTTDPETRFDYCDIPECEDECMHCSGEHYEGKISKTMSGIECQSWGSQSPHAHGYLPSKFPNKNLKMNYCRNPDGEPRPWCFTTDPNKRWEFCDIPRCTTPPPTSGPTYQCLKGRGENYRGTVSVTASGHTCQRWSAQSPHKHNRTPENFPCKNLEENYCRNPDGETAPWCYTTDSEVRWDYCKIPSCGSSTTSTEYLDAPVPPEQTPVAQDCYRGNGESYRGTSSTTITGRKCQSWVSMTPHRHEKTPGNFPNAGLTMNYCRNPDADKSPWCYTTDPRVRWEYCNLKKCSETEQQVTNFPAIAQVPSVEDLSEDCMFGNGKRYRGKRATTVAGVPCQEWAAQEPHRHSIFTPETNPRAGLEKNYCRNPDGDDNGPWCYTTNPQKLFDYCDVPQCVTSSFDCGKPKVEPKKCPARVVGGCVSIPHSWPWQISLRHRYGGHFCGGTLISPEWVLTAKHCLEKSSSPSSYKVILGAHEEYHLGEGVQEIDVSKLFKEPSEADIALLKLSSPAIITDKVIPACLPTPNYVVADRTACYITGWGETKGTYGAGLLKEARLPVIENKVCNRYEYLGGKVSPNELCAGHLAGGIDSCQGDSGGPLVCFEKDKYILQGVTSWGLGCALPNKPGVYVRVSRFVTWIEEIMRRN
# ASSAY_OVERVIEW: Km, Vmax and Vmax/Km of substrates for plasmin (pig)
# Type: biochemical, Porcine (pig)
# CONDITION_SET: TABLE 2; V/Km of each sample divided by that of S2251 (so in the source)
y means recorded Relative ratio is 40 or above; n means it is below 40.

INPUT: Please indicate if the recorded Relative ratio for Cc1ccc(S(=O)(=O)NCCCC[C@@H](N)C(=O)N[C@@H](CC(C)C)C(=O)N[C@@H](CCCCN)C(=O)Nc2ccc(O)c(C(=O)O)c2)cc1 [NPC-12, HD-Lys(Tos)LeuLysCHA.2HBr] meets or exceeds 40.
OUTPUT: n

INPUT: Please indicate if the recorded Relative ratio for NCCCC[C@H](NC(=O)[C@H](Cc1ccccc1)NC(=O)[C@H](N)CCCCNC(=O)c1ccccc1)C(=O)Nc1ccc(O)c(C(=O)O)c1 [NPC-14] meets or exceeds 40.
OUTPUT: y

###

# EXPERIMENTAL_TARGET: plasmin (pig) (Sus scrofa)
# ASSAY_OVERVIEW: Km, Vmax and Vmax/Km of substrates for plasmin (pig)
# Type: biochemical, Porcine (pig)
# CONDITION_SET: TABLE 2, CHA substrates, plasmin (pig), 2,6-xylenol 615 nm
MEASURED_ATTRIBUTE: Vmax (× 10^-7)

INPUT: Item: NCCCC[C@H](NC(=O)[C@H](Cc1ccccc1)NC(=O)[C@H](N)CCCCNS(=O)(=O)c1ccc2ccccc2c1)C(=O)Nc1ccc(O)c(C(=O)O)c1 [NPC-8, HD-Lys(NaS)PheLysCHA.2HCl] Test system: plasmin (pig) (Sus scrofa) Read-out: Vmax (× 10^-7) Value: ?
OUTPUT: 30.814 × 10^-7

INPUT: Item: Cc1cc(C)c(S(=O)(=O)NCCCC[C@@H](N)C(=O)N[C@@H](Cc2ccccc2)C(=O)N[C@@H](CCCCN)C(=O)Nc2ccc(O)c(C(=O)O)c2)c(C)c1 [NPC-10, HD-Lys(Mst)PheLysCHA.2HCl] Test system: plasmin (pig) (Sus scrofa) Read-out: Vmax (× 10^-7) Value: ?
OUTPUT: 28.445 × 10^-7

INPUT: Item: NCCCC[C@H](NC(=O)[C@H](Cc1ccccc1)NC(=O)[C@H](N)CCCCNC(=O)c1ccccc1)C(=O)Nc1ccc(O)c(C(=O)O)c1 Test system: plasmin (pig) (Sus scrofa) Read-out: Vmax (× 10^-7) Value: ?
OUTPUT: 33.794 × 10^-7

INPUT: Item: CC(C)[C@@H](N)C(=O)N[C@@H](Cc1ccccc1)C(=O)N[C@@H](CCCCN)C(=O)Nc1ccc(O)c(C(=O)O)c1 [NPC-2, HD-ValPheLysCHA.2HCl] Test system: plasmin (pig) (Sus scrofa) Read-out: Vmax (× 10^-7) Value: ?
OUTPUT: 8.266 × 10^-7

INPUT: Item: NCCCC[C@H](NC(=O)[C@H](Cc1ccccc1)NC(=O)[C@H](N)CCCCNS(=O)(=O)c1cccc2ccccc12)C(=O)Nc1ccc(O)c(C(=O)O)c1 Test system: plasmin (pig) (Sus scrofa) Read-out: Vmax (× 10^-7) Value: ?
OUTPUT: 15.803 × 10^-7

INPUT: Item: Cc1ccc(CCNC(=O)CC[C@@H](N)C(=O)N[C@@H](Cc2ccccc2)C(=O)N[C@@H](CCCCN)C(=O)Nc2ccc(O)c(C(=O)O)c2)cc1 Test system: plasmin (pig) (Sus scrofa) Read-out: Vmax (× 10^-7) Value: ?
OUTPUT: 21.637 × 10^-7

INPUT: Item: Cc1ccc(S(=O)(=O)NCCC[C@@H](N)C(=O)N[C@@H](Cc2ccccc2)C(=O)N[C@@H](CCCCN)C(=O)Nc2ccc(O)c(C(=O)O)c2)cc1 Test system: plasmin (pig) (Sus scrofa) Read-out: Vmax (× 10^-7) Value: ?
OUTPUT: 35.252 × 10^-7

INPUT: Item: NCCCC[C@H](NC(=O)[C@H](Cc1ccccc1)NC(=O)[C@H](N)CCCCNC(=O)Cc1ccccc1)C(=O)Nc1ccc(O)c(C(=O)O)c1 Test system: plasmin (pig) (Sus scrofa) Read-out: Vmax (× 10^-7) Value: ?
OUTPUT: 26.986 × 10^-7

INPUT: Item: NCCCC[C@@H](N)C(=O)N[C@@H](Cc1ccccc1)C(=O)N[C@@H](CCCCN)C(=O)Nc1ccc(O)c(C(=O)O)c1 Test system: plasmin (pig) (Sus scrofa) Read-out: Vmax (× 10^-7) Value: ?
OUTPUT: 7.506 × 10^-7

INPUT: Item: Cc1ccc(S(=O)(=O)NCCCC[C@@H](N)C(=O)N[C@@H](Cc2ccccc2)C(=O)N[C@@H](CCCCN)C(=O)Nc2ccc(O)c(C(=O)O)c2)cc1 [NPC-7, 2HCl.H-D-Lys(ToS)-L-Phe-L-Lys-CHA] Test system: plasmin (pig) (Sus scrofa) Read-out: Vmax (× 10^-7) Value: ?
OUTPUT: 29.417 × 10^-7

INPUT: Item: CS(=O)(=O)NCCCC[C@@H](N)C(=O)N[C@@H](Cc1ccccc1)C(=O)N[C@@H](CCCCN)C(=O)Nc1ccc(O)c(C(=O)O)c1 Test system: plasmin (pig) (Sus scrofa) Read-out: Vmax (× 10^-7) Value: ?
OUTPUT: 15.803 × 10^-7

###

# EXPERIMENTAL_TARGET: plasmin (pig) (Sus scrofa)
# ASSAY_OVERVIEW: Km, Vmax and Vmax/Km of substrates for plasmin (pig)
# Type: biochemical, Porcine (pig)
# CONDITION_SET: TABLE 2, CHA substrates, plasmin (pig), 2,6-xylenol 615 nm
MEASURED_ATTRIBUTE: Vmax (× 10^-7)

1. NCCCC[C@H](NC(=O)[C@H](Cc1ccccc1)NC(=O)[C@H](N)CCC(=O)NCCc1ccccc1)C(=O)Nc1ccc(O)c(C(=O)O)c1 [NPC-23]    18.963 × 10^-7
2. CCCC(=O)NCCCC[C@@H](N)C(=O)N[C@@H](Cc1ccccc1)C(=O)N[C@@H](CCCCN)C(=O)Nc1ccc(O)c(C(=O)O)c1 [NPC-19]    8.266 × 10^-7
3. Cc1ccc(S(=O)(=O)Oc2ccc(C[C@@H](N)C(=O)N[C@@H](Cc3ccccc3)C(=O)N[C@@H](CCCCN)C(=O)Nc3ccc(O)c(C(=O)O)c3)cc2)cc1 [NPC-11, HD-Tyr(Tos)PheLysCHA.2HCl]    17.018 × 10^-7
4. Cc1ccc(S(=O)(=O)NCCCC[C@H](N)C(=O)N[C@@H](Cc2ccccc2)C(=O)N[C@@H](CCCCN)C(=O)Nc2ccc(O)c(C(=O)O)c2)cc1 [NPC-5, HL-Lys(Tos)PheLysCHA.2HCl]    3.159 × 10^-7
5. CC(C)C[C@H](NC(=O)[C@H](N)C(C)C)C(=O)N[C@@H](CCCCN)C(=O)Nc1ccc(O)c(C(=O)O)c1 [NPC-1, HD-ValLeuLysCHA.2HBr]    3.556 × 10^-7
6. CC(C)OC(=O)C[C@@H](N)C(=O)N[C@@H](Cc1ccccc1)C(=O)N[C@@H](CCCCN)C(=O)Nc1ccc(O)c(C(=O)O)c1 [NPC-21]    6.802 × 10^-7

INPUT: What Vmax (× 10^-7) value was documented for this molecule, Cc1ccc(S(=O)(=O)Oc2ccc(C[C@@H](N)C(=O)N[C@@H](CC(C)C)C(=O)N[C@@H](CCCCN)C(=O)Nc3ccc(O)c(C(=O)O)c3)cc2)cc1 [NPC-13, HD-Tyr(Tos)LeuLysCHA.2HCl] ?
OUTPUT: 17.991 × 10^-7

INPUT: What Vmax (× 10^-7) value was documented for this molecule, Cc1ccc(C(=O)NCCCC[C@@H](N)C(=O)N[C@@H](Cc2ccccc2)C(=O)N[C@@H](CCCCN)C(=O)Nc2ccc(O)c(C(=O)O)c2)cc1 [NPC-6, HD-Lys(Toc)PheLysCHA.2HCl] ?
OUTPUT: 11.670 × 10^-7

INPUT: What Vmax (× 10^-7) value was documented for this molecule, NCCCC[C@H](NC(=O)[C@H](Cc1ccccc1)NC(=O)[C@H](N)CC(=O)OC1CCCCC1)C(=O)Nc1ccc(O)c(C(=O)O)c1 [NPC-22] ?
OUTPUT: 17.991 × 10^-7

INPUT: What Vmax (× 10^-7) value was documented for this molecule, NCCCC[C@H](NC(=O)[C@H](Cc1ccccc1)NC(=O)[C@H](N)CCCCNS(=O)(=O)c1ccccc1)C(=O)Nc1ccc(O)c(C(=O)O)c1 [NPC-15] ?
OUTPUT: 37.927 × 10^-7

INPUT: What Vmax (× 10^-7) value was documented for this molecule, Cc1ccc(S(=O)(=O)NCCCC[C@@H](N)C(=O)N[C@@H](CC(C)C)C(=O)N[C@@H](CCCCN)C(=O)Nc2ccc(O)c(C(=O)O)c2)cc1 [NPC-12, HD-Lys(Tos)LeuLysCHA.2HBr] ?
OUTPUT: 25.679 × 10^-7
